Experimental target: KRAS G12S (Homo sapiens, UniProt P01116+P62937, G12S)
Sequence (P01116 1-169 isoform P01116-2 G12S limits assumed): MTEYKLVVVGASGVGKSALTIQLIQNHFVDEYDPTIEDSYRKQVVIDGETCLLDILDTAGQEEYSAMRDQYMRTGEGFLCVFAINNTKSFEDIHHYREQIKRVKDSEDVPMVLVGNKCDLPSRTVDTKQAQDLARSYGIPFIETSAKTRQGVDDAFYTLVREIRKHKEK
Sequence (P62937 whole entry): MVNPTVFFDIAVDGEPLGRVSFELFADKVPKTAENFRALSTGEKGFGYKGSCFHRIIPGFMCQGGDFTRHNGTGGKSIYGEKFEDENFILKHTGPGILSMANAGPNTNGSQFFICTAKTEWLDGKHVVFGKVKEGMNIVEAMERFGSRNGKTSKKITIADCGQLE
Assay notes: Ras-Raf disruption/FRET/MOA assay, KRAS G12S
Assay type: biochemical
Experimental conditions: disruption of BRAF RBD binding, with Cyclophilin A; read-out: KRAS G12S FRET IC50
Assignment: determine reported IC50 for the given compounds.

// below: answered compounds
# Compound, Experimental target, Data value
records = [
    ("CCn1c(-c2cccnc2[C@H](C)OC)c2c3cc(ccc31)-c1cc(O)cc(c1)C[C@H](NC(=O)[C@H](C(C)C)N1CCC3(CCN(C(=O)[C@H]4CN4)CC3)C1=O)C(=O)N1CCC[C@H](N1)C(=O)OCC(C)(C)C2", "KRAS G12S (Homo sapiens, UniProt P01116+P62937, G12S)", "100 to 1000 nM"),
    ("CCn1c(-c2cc(N3CCN(C)CC3)cnc2[C@H](C)OC)c2c3cc(ccc31)-c1csc(n1)C[C@H](NC(=O)[C@H](C1CCCC1)N1CC[C@]3(CCN(C(=O)[C@@H]4N[C@@H]4C4CC4)C3)C1=O)C(=O)N1CCC[C@H](N1)C(=O)OCC(C)(C)C2", "KRAS G12S (Homo sapiens, UniProt P01116+P62937, G12S)", "100 to 1000 nM"),
    ("CCn1c(-c2cccnc2[C@H](C)OC)c2c3cc(ccc31)-c1cc(O)cc(c1)C[C@H](NC(=O)[C@H](C1CCCC1)N1CC[C@@]3(CCN(C(=O)[C@@H]4N[C@@H]4C4CC4)C3)C1=O)C(=O)N1CCC[C@H](N1)C(=O)OCC(C)(C)C2", "KRAS G12S (Homo sapiens, UniProt P01116+P62937, G12S)", "100 to 1000 nM"),
    ("CCn1c(-c2cnccc2COC)c2c3cc(ccc31)-c1cc(O)cc(c1)C[C@H](NC(=O)[C@H](C(C)C)N(C)C(=O)CN(C)C(=O)[C@H]1[C@@H](C)N1[S@+]([O-])C(C)(C)C)C(=O)N1CCC[C@H](N1)C(=O)OCC(C)(C)C2 (stereo partly shown)", "KRAS G12S (Homo sapiens, UniProt P01116+P62937, G12S)", "10 to 100 nM"),
    ("CCn1c(-c2cnccc2COC)c2c3cc(ccc31)-c1cc(O)cc(c1)C[C@H](NC(=O)[C@H](C(C)C)N(C)C(=O)[C@H]1CCN(C(=O)N3C[C@@H]3C(=O)OC)C1)C(=O)N1CCC[C@H](N1)C(=O)OCC(C)(C)C2", "KRAS G12S (Homo sapiens, UniProt P01116+P62937, G12S)", "100 to 1000 nM"),
]

Each compound below has a reported value. Please supply its IC50.
1. CCn1c(-c2cccnc2[C@H](C)OC)c2c3cc(ccc31)-c1csc(n1)C[C@H](NC(=O)[C@H](C(C)C)N(C)C(=O)N1CCC[C@@H](N(C)C(=O)[C@H]3CN3)C1)C(=O)N1CCC[C@H](N1)C(=O)OCC(C)(C)C2 (atropisomer, axis not shown)
2. CCn1c(-c2cnccc2COC)c2c3cc(ccc31)-c1cc(O)cc(c1)C[C@H](NC(=O)[C@H](C(C)C)N(C)C(=O)CN(C)C(=O)[C@@H]1CN1C(C)=O)C(=O)N1CCC[C@H](N1)C(=O)OCC(C)(C)C2
3. CCn1c(-c2cccnc2[C@H](C)OC)c2c3cc(ccc31)-c1cc(O)cc(c1)C[C@H](NC(=O)[C@H](C(C)C)N(C)C(=O)[C@@H]1CN(C(=O)[C@H]3CN3)C[C@@H]1C)C(=O)N1CCC[C@H](N1)C(=O)OCC(C)(C)C2
4. CCn1c(-c2cnccc2COC)c2c3cc(ccc31)-c1cc(O)cc(c1)C[C@H](NC(=O)[C@H](C(C)C)N(C)C(=O)[C@H]1CCN(C(=O)N3C[C@H]3C(=O)OC)C1)C(=O)N1CCC[C@H](N1)C(=O)OCC(C)(C)C2
5. CCn1c(-c2cnccc2COC)c2c3cc(ccc31)-c1cc(O)cc(c1)C[C@H](NC(=O)[C@H](C(C)C)N(C)C(=O)CN(C)C(=O)[C@H]1CN1C(=O)OC)C(=O)N1CCC[C@H](N1)C(=O)OCC(C)(C)C2
6. CCn1c(-c2cnccc2COC)c2c3cc(ccc31)-c1cc(O)cc(c1)C[C@H](NC(=O)[C@H](C(C)C)N(C)C(=O)CN(C)C(=O)[C@@H]1[C@H](C3CC3)N1[S@@+]([O-])C(C)(C)C)C(=O)N1CCC[C@H](N1)C(=O)OCC(C)(C)C2 (stereo partly shown)
7. CCn1c(-c2cccnc2[C@H](C)OC)c2c3cc(ccc31)-c1cc(O)cc(c1)C[C@H](NC(=O)[C@H](C(C)C)N1CCCC3(CN(C(=O)[C@@H]4CN4)C3)C1=O)C(=O)N1CCC[C@H](N1)C(=O)OCC(C)(C)C2

# output
1: 10 to 100 nM; 2: 10 to 100 nM; 3: 10 to 100 nM; 4: 100 to 1000 nM; 5: 10 to 100 nM; 6: 100 to 1000 nM; 7: 10 to 100 nM

---

Would you mind telling me the reported IC50 of each entry?
Experimental target: KRAS G12C (Homo sapiens, UniProt P01116+P62937, G12C)
Sequence (P01116 1-169 isoform P01116-2 G12C limits assumed): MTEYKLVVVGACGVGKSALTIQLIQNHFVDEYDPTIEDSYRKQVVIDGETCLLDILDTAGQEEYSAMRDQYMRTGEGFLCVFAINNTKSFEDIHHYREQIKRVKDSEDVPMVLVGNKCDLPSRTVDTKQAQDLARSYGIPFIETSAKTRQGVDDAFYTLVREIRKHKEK
Sequence (P62937 whole entry): as the sequence (P62937 whole entry) above
Assay notes: Ras-Raf disruption/FRET/MOA assay, KRAS G12C
Assay type: biochemical
Source text: Disruption of B-Raf Ras-Binding Domain (BRAF^RBD) Interaction with K-Ras by Compounds of the Invention (Also Called a FRET Assay or an MOA Assay) Note—The following protocol describes a procedure for monitoring disruption of K-Ras G12C (GMP-PNP) binding to BRAF^RBD by a compound of the invention. This protocol may also be executed substituting other Ras proteins or nucleotides, such as K-Ras G12D and K-Ras G13D. […]

# Compound, Assay metric, Data value
rows = [
    ("CCn1c(-c2cnccc2COC)c2c3cc(ccc31)-c1cc(O)cc(c1)C[C@H](NC(=O)[C@H](C(C)C)N(C)C(=O)CN(C)C(=O)[C@@H]1CN1)C(=O)N1CCC[C@H](N1)C(=O)OCC(C)(C)C2 [Compound 8]", "IC50", "10 to 100 nM"),
]

Below are 3 compounds. Give each one its IC50.
1. CCn1c(-c2cccnc2[C@H](C)OC)c2c3cc(ccc31)-c1cc(O)cc(c1)C[C@H](NC(=O)[C@H](C(C)C)N(C)C(=O)CN(C)C(=O)[C@H]1N[C@H]1C1CC1)C(=O)N1CCC[C@H](N1)C(=O)OCC(C)(C)C2 [Compound 134]
2. CCC(C)N(C)C(=O)c1cncc(-c2c3c4cc(ccc4n2CC)-c2cc(O)cc(c2)C[C@H](NC(=O)[C@H](C(C)C)N(C)C(=O)CN(C)C(=O)[C@H]2CN2)C(=O)N2CCC[C@H](N2)C(=O)OCC(C)(C)C3)c1 (some centres unmarked) [Compound 144]
3. CCn1c(-c2cccnc2[C@H](C)OC)c2c3cc(ccc31)-c1cc(O)cc(c1)C[C@H](NC(=O)[C@H](C(C)C)N(C)C(=O)CN(C)C(=O)[C@@H]1CN1)C(=O)N1CCC[C@H](N1)C(=O)OCC(C)(C)C2 [Compound 150]

# output
["10 to 100 nM", "10 to 100 nM", "< 10 nM"]

# input Requested read-out IC50, target or system KRAS G12C (Homo sapiens, UniProt P01116+P62937, G12C), entry CCn1c(-c2cnccc2COC)c2c3cc(ccc31)-c1cc(O)cc(c1)C[C@H](NC(=O)[C@H](C(C)C)N(C)C(=O)CN(C)C(=O)[C@@H]1N[C@@H]1c1ccccc1)C(=O)N1CCC[C@H](N1)C(=O)OCC(C)(C)C2 [Compound 110]
# output 10 to 100 nM

---

System: AsPC-1 (K-Ras G12D)
Assay notes: CellTiter-Glo cell viability assay, AsPC-1
Assay type: cell-based
Experimental conditions: Homo sapiens, ASPC1, 120 h, read-out: AsPC-1 Cell Viability IC50, AsPC-1, K-Ras G12D, 5-day treatment
Assay metric: IC50

Some solved cases for reference:
# Compound, Data value
measured = [
    ("CCn1c(-c2cnccc2COC)c2c3cc(ccc31)-c1cc(O)cc(c1)C[C@H](NC(=O)[C@H](C(C)C)N(C)C(=O)CN(C)C(=O)[C@@H]1N[C@H]1c1ccccc1)C(=O)N1CCC[C@H](N1)C(=O)OCC(C)(C)C2 [Compound 11]", "1000 to 10000 nM"),
    ("CCn1c(-c2cccnc2[C@H](C)OC)c2c3cc(ccc31)-c1cc(O)cc(c1)C[C@H](NC(=O)[C@H](C(C)C)N(C)C(=O)CN(C)C(=O)[C@@H]1CN1CCCN1CCCC1=O)C(=O)N1CCC[C@H](N1)C(=O)OCC(C)(C)C2 (stereo partly shown) [Compound 269]", "1000 to 10000 nM"),
    ("CCC(C)N(C)C(=O)c1cncc(-c2c3c4cc(ccc4n2CC)-c2cc(O)cc(c2)C[C@H](NC(=O)[C@H](C(C)C)N(C)C(=O)CN(C)C(=O)[C@H]2CN2)C(=O)N2CCC[C@H](N2)C(=O)OCC(C)(C)C3)c1 (stereo partly shown) [Compound 144]", "100 to 1000 nM"),
]

Turning now to a further compound:
# input State the recorded IC50 for this entry: CCn1c(-c2cccnc2[C@H](C)OC)c2c3cc(ccc31)-c1cc(O)cc(c1)C[C@H](NC(=O)[C@H](C(C)C)N(C)C(=O)CN(C)C(=O)[C@H]1CN1Cc1ccccc1F)C(=O)N1CCC[C@H](N1)C(=O)OCC(C)(C)C2 (stereo partly shown) [Compound 155]
# output 100 to 1000 nM
